Test system: CP260
Test: qHTS profiling for inhibitors of Plasmodium falciparum proliferation (AID 504749); also: nearly all actives have a fitted effect of over 60% in size
Conditions: P. falciparum in erythrocytes, SYBR Green DNA, 72 h; series mostly up to 28.7 µM
Inconclusive results are not listed. Active and inactive are the calls of the source. Calls follow the shape of the dose curve; as a rule, active = well fitted inhibition curve with a large enough effect; inconclusive = small, poorly fitted or top-dose-only effect; inactive = flat fitted curve, though single readings scatter.
Outcomes: true = active, false = inactive

[[record]]
compound = "CC(C)CN(C[C@@H](O)[C@H](Cc1ccccc1)NC(=O)O[C@H]1CCOC1)S(=O)(=O)c1ccc(N)cc1"
assayed_target = "CP260"
class_label = "false"

[[record]]
compound = "S=C1NC=NC2N=CNC12 (centres undefined)"
assayed_target = "CP260"
class_label = "false"

[[record]]
compound = "CN1CC[C@H](CN2c3ccccc3Sc3ccccc32)C1"
assayed_target = "CP260"
class_label = "true"

[[record]]
compound = "CCC(C)n1ncn(-c2ccc(N3CCN(c4ccc(OCC5COC(Cn6cncn6)(c6ccc(Cl)cc6Cl)O5)cc4)CC3)cc2)c1=O (centres undefined)"
assayed_target = "CP260"
class_label = "true"

[[record]]
compound = "CC(=O)OC1CC2CCC1(C)C2(C)C (centres undefined)"
assayed_target = "CP260"
class_label = "false"

[[record]]
compound = "C1OCOCO1"
assayed_target = "CP260"
class_label = "false"

[[record]]
compound = "CC1CCC(C(C)C)C(OC(=O)c2ccccc2O)C1 (centres undefined)"
assayed_target = "CP260"
class_label = "false"

[[record]]
compound = "CC(=O)O[C@@]12CO[C@@H]1C[C@H](O)[C@@]1(C)C(=O)[C@H](O)C3=C(C)[C@@H](OC(=O)C(O)[C@@H](NC(=O)OC(C)(C)C)c4ccccc4)C[C@@](O)([C@@H](OC(=O)c4ccccc4)[C@H]21)C3(C)C (some centres undefined)"
assayed_target = "CP260"
class_label = "true"

[[record]]
compound = "O=C(O)c1cc(O)c2c(c1)[C@H]([C@H]1c3cc(C(=O)O)cc(O)c3C(=O)c3c(O[C@@H]4OC(CO)C(O)C(O)C4O)cccc31)c1cccc(O[C@@H]3OC(CO)C(O)C(O)C3O)c1C2=O (some centres undefined)"
assayed_target = "CP260"
class_label = "false"

[[record]]
compound = "CCC(=O)O[C@@H](OP(=O)(CCCCc1ccccc1)CC(=O)N1C[C@H](C2CCCCC2)C[C@H]1C(=O)O)C(C)C (some centres undefined)"
assayed_target = "CP260"
class_label = "false"

[[record]]
compound = "C=C[C@]1(C)C[C@@H](OC(=O)CSCCN(CC)CC)[C@]2(C)C(C)CC[C@]3(CCC(=O)[C@H]32)[C@@H](C)[C@@H]1O (some centres undefined)"
assayed_target = "CP260"
class_label = "true"

[[record]]
compound = "O=NCc1ccc([N+](=O)[O-])o1"
assayed_target = "CP260"
class_label = "false"

[[record]]
compound = "CO/N=C(/C(=O)N[C@@H]1C(=O)N2C(C(=O)O)=CCS[C@H]12)c1csc(N)n1"
assayed_target = "CP260"
class_label = "false"

[[record]]
compound = "CC(C)CN(C[C@@H](OP(=O)(O)O)[C@H](Cc1ccccc1)NC(=O)O[C@@H]1CCOC1)S(=O)(=O)c1ccc(N)cc1"
assayed_target = "CP260"
class_label = "false"

